- system under test: mouse TMEM16A mutant G558P (Mus musculus, UniProt Q8BHY3, G558P)
- Construct: expressed in transfected cells; host or cells: HEK293T
- experiment description: Inside-out patch recording of 1PBC block, mutant G558P
- Type: cell-based
- condition info: G558P; V 120 mV
pIC50: −log10 of the molar value.

{"columns": ["molecule", "system under test", "pIC50"],
 "data": [
  ["N#Cc1c(C(F)(F)F)cc(O)n2c1nc1ccccc12 [1PBC]", "mouse TMEM16A mutant G558P (Mus musculus, UniProt Q8BHY3, G558P)", 5.49]
]}

====

- system under test: mouse TMEM16A mutant G510P (Mus musculus, UniProt Q8BHY3, G510P)
- Construct: expressed in transfected cells; host or cells: HEK293T
- experiment description: Inside-out patch recording of 1PBC block, mutant G510P
- Format: cell-based
- condition info: G510P; V 140 mV

{"columns": ["smiles str", "IC50"],
 "data": [
  ["N#Cc1c(C(F)(F)F)cc(O)n2c1nc1ccccc12", "69.5 µM"]
]}

====

- system under test: mouse TMEM16A mutant I512A (Mus musculus, UniProt Q8BHY3, I512A)
- Construct: expressed in transfected cells; host or cells: HEK293T
- experiment description: Inside-out patch recording of 1PBC block, mutant I512A
- Type: cell-based
- condition info: I512A; V -20 mV
measurement type: IC50

{"columns": ["smiles str", "system under test", "val"],
 "data": [
  ["N#Cc1c(C(F)(F)F)cc(O)n2c1nc1ccccc12", "mouse TMEM16A mutant I512A (Mus musculus, UniProt Q8BHY3, I512A)", "37.1 µM"]
]}

====

- system under test: mouse TMEM16A mutant T518A (Mus musculus, UniProt Q8BHY3, T518A)
- Construct: expressed in transfected cells; host or cells: HEK293T
- experiment description: Inside-out patch recording of 1PBC block, mutant T518A
- Type: cell-based
- condition info: 60 mV; 2 µM Ca2+
pIC50: −log10 of the molar value.
measurement type: pIC50

{"columns": ["compound", "val"],
 "data": [
  ["N#Cc1c(C(F)(F)F)cc(O)n2c1nc1ccccc12 [1PBC]", 5.52]
]}

====

- system under test: mouse TMEM16A mutant Y598A (Mus musculus, UniProt Q8BHY3, Y598A)
- Construct: expressed in transfected cells; host or cells: HEK293T
- experiment description: Inside-out patch recording of 1PBC block, mutant Y598A
- Type: cell-based
- condition info: Y598A; V -100 mV

{"columns": ["molecule", "IC50 (µM)"],
 "data": [
  ["N#Cc1c(C(F)(F)F)cc(O)n2c1nc1ccccc12 [1PBC]", 13.5]
]}

====

- system under test: mouse TMEM16A mutant Y514A (Mus musculus, UniProt Q8BHY3, Y514A)
- Construct: expressed in transfected cells; host or cells: HEK293T
- experiment description: Inside-out patch recording of 1PBC block, mutant Y514A
- Type: cell-based
- condition info: Y514A; V -20 mV

{"columns": ["molecule", "IC50, µM"],
 "data": [
  ["N#Cc1c(C(F)(F)F)cc(O)n2c1nc1ccccc12 [1PBC]", 26.9]
]}

====

- system under test: mouse TMEM16A mutant K603Q (Mus musculus, UniProt Q8BHY3, K603Q)
- Construct: expressed in transfected cells; host or cells: HEK293T
- experiment description: Inside-out patch recording of 1PBC block, mutant K603Q
- Type: cell-based
- condition info: K603Q; V 140 mV
measurement type: IC50 (µM)

{"columns": ["molecule", "val"],
 "data": [
  ["N#Cc1c(C(F)(F)F)cc(O)n2c1nc1ccccc12 [1PBC]", 196]
]}

====

- system under test: mouse TMEM16A mutant I516A (Mus musculus, UniProt Q8BHY3, I516A)
- Construct: expressed in transfected cells; host or cells: HEK293T
- Sequence (Q8BHY3 1-960 I516A): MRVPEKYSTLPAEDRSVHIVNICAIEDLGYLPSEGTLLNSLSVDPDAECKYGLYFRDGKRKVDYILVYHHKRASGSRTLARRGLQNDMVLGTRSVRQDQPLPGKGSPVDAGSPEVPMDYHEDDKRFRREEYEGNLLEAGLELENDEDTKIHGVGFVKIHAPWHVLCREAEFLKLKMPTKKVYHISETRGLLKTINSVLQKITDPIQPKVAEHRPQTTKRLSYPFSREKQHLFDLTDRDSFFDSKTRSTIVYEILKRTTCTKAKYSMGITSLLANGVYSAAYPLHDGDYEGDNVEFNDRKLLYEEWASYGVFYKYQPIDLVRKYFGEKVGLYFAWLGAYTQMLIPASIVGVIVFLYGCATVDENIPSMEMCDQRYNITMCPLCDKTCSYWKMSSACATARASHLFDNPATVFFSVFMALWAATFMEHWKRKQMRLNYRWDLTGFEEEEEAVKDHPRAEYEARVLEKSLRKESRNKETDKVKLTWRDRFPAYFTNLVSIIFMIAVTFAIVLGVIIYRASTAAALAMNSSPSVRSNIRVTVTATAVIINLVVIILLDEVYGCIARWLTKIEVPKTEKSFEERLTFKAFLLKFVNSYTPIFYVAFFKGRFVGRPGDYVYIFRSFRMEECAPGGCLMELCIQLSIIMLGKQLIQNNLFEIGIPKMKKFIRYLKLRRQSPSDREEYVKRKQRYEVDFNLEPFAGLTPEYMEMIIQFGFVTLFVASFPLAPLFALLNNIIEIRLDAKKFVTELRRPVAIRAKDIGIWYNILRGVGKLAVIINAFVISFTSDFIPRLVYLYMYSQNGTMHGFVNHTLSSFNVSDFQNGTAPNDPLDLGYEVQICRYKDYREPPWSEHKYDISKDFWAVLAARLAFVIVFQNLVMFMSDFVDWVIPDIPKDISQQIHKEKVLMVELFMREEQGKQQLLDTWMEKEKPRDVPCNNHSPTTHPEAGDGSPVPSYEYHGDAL
- experiment description: Inside-out patch recording of 1PBC block, mutant I516A
- Format: cell-based
- condition info: 100 mV; 2 µM Ca2+
measurement type: IC50 (µM)

{"columns": ["molecule", "val"],
 "data": [
  ["N#Cc1c(C(F)(F)F)cc(O)n2c1nc1ccccc12 [1PBC]", 4.22]
]}

====

- system under test: mouse TMEM16A mutant I512A (Mus musculus, UniProt Q8BHY3, I512A)
- Construct: expressed in transfected cells; host or cells: HEK293T
- experiment description: Inside-out patch recording of 1PBC block, mutant I512A
- Type: cell-based
- condition info: I512A; V -100 mV
- Procedure: HEK293T cells (ATCC CRL-1573) were maintained in Dulbecco’s modified Eagle’s medium (DMEM; Sigma-Aldrich) supplemented with 10 U ml^−1 penicillin, 0.1 mg ml^−1 streptomycin (Sigma-Aldrich), 2 mM L-glutamine (Sigma-Aldrich), and 10% FBS (Sigma-Aldrich) in a humidified atmosphere containing 5% CO2 at 37 °C. […]
measurement type: IC50 (µM)

{"columns": ["smiles str", "measurement type", "val"],
 "data": [
  ["N#Cc1c(C(F)(F)F)cc(O)n2c1nc1ccccc12", "IC50", 66.1]
]}

====

- system under test: mouse TMEM16A mutant K603Q (Mus musculus, UniProt Q8BHY3, K603Q)
- Construct: expressed in transfected cells; host or cells: HEK293T
- experiment description: Inside-out patch recording of 1PBC block, mutant K603Q
- Format: cell-based
- condition info: 80 mV; 4 µM Ca2+
- Method: HEK293T cells (ATCC CRL-1573) were maintained in Dulbecco’s modified Eagle’s medium (DMEM; Sigma-Aldrich) supplemented with 10 U ml^−1 penicillin, 0.1 mg ml^−1 streptomycin (Sigma-Aldrich), 2 mM L-glutamine (Sigma-Aldrich), and 10% FBS (Sigma-Aldrich) in a humidified atmosphere containing 5% CO2 at 37 °C. […]

{"columns": ["molecule", "system under test", "measurement units", "IC50"],
 "data": [
  ["N#Cc1c(C(F)(F)F)cc(O)n2c1nc1ccccc12 [1PBC]", "mouse TMEM16A mutant K603Q (Mus musculus, UniProt Q8BHY3, K603Q)", "µM", 192]
]}

====

- system under test: wild-type mouse TMEM16A (Mus musculus, UniProt Q8BHY3)
- Construct: expressed in transfected cells; host or cells: HEK293T
- experiment description: Inside-out patch recording of 1PBC block, wild-type TMEM16A
- Assay type: cell-based
- condition info: 40 mV; 2 µM Ca2+
- Protocol: HEK293T cells (ATCC CRL-1573) were maintained in Dulbecco’s modified Eagle’s medium (DMEM; Sigma-Aldrich) supplemented with 10 U ml^−1 penicillin, 0.1 mg ml^−1 streptomycin (Sigma-Aldrich), 2 mM L-glutamine (Sigma-Aldrich), and 10% FBS (Sigma-Aldrich) in a humidified atmosphere containing 5% CO2 at 37 °C. […]
measurement type: IC50 (µM)

{"columns": ["compound", "measurement type", "measurement units", "val"],
 "data": [
  ["N#Cc1c(C(F)(F)F)cc(O)n2c1nc1ccccc12 [1PBC]", "IC50", "µM", 2.77]
]}
